Molecular target: T1, integrin αvβ3, purified from human placenta (human, UniProt P06756 31-1048; P05106 27-788)
T1 construct: mature; Native heterodimer, immobilized on ELISA plates or on the BIAcore chip; biotinylated in capture lift and capture ELISA screens; also called αvβ3 receptor; vitronectin receptor
T1 sequence (P06756 31-1048, form in doubt, chain 1 of 2): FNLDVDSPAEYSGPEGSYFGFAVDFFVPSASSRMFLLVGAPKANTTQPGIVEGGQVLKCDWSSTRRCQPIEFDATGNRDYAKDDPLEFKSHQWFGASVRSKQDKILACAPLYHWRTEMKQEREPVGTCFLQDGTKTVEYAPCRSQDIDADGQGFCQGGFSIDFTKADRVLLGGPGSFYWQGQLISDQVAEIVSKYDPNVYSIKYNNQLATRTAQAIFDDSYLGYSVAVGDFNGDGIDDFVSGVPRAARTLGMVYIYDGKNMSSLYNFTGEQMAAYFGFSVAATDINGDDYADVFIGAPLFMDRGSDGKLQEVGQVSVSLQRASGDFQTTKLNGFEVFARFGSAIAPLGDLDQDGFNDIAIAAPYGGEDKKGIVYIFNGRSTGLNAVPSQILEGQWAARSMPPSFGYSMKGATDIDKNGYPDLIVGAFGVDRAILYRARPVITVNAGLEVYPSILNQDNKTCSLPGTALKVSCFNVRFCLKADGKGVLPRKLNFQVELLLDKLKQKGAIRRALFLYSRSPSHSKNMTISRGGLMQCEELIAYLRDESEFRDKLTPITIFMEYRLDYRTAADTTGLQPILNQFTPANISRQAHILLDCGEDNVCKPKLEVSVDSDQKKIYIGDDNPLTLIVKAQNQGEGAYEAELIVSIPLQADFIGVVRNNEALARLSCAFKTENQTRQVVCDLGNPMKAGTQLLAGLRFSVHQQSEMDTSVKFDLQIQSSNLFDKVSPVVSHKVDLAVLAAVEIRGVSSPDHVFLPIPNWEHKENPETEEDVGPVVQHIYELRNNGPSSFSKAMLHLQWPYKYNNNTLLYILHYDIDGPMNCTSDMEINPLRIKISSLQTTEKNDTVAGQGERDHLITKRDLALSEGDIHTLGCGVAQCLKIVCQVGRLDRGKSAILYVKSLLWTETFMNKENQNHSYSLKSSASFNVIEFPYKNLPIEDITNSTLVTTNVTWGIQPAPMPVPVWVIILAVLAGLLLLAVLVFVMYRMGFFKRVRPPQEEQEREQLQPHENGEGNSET
T1 sequence (P05106 27-788, form in doubt, chain 2 of 2): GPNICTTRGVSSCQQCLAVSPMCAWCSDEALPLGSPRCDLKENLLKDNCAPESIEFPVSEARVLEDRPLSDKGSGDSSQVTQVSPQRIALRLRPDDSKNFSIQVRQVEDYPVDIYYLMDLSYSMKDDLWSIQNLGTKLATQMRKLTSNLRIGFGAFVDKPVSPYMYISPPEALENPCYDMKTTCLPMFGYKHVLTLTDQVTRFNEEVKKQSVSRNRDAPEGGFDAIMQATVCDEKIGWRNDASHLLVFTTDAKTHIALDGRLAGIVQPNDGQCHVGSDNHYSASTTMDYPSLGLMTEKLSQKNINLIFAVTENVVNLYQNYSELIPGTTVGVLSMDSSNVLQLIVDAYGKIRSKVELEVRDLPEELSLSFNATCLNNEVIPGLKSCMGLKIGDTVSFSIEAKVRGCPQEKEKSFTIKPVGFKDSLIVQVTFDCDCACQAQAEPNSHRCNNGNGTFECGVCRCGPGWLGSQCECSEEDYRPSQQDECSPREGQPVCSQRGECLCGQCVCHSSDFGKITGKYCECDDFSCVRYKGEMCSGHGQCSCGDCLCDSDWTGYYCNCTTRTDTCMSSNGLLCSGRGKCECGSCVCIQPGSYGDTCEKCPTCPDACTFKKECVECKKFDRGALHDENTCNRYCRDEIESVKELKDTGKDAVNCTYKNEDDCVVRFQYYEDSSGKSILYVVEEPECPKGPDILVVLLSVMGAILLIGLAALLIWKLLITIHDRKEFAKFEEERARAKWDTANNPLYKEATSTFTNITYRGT
Experiment: SPR (BIAcore), purified Fab over immobilized αvβ3
Param threshold (200000 M⁻¹ s⁻¹) applies to kon; output true when value >= threshold, false when value < threshold.

# binder, classification
records = [
    ("LM609 grafted antibody Fab (Fab, V domains shown, Fab expressed from M13 phage vector, human kappa chain, peptide tag on the carboxyl-terminus of the heavy chain; also called LM609 grafted Fab; parent LM609 grafted antibody) VH: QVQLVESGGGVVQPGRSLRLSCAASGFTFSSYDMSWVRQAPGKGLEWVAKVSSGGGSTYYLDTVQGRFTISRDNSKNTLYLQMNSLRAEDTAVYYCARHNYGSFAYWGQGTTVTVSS VL: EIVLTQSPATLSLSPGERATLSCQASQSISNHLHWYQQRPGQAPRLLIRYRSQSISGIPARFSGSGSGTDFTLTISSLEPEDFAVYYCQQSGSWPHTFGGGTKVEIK", "false"),
]

Could you tell me if the measured kon of LM609 grafted antibody variant L96 (Fab, V domains shown, Fab) VH: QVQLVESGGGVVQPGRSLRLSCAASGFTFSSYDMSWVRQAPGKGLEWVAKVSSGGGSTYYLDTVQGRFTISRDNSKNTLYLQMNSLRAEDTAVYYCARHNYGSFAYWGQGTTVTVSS VL: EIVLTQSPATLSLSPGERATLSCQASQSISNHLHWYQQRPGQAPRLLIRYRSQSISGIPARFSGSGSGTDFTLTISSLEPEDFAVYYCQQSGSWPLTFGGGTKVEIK reaches 200000 M⁻¹ s⁻¹ or more?
true

Is reported kon greater than or equal to 200000 M⁻¹ s⁻¹ here: LM609 grafted antibody variant S102 (Fab, V domains shown, Fab; also called clone S102) VH: QVQLVESGGGVVQPGRSLRLSCAASGFTFSSYDMSWVRQAPGKGLEWVAKVSSGGGSTYYLDTVQGRFTISRDNSKNTLYLQMNSLRAEDTAVYYCARHNYGSFASWGQGTTVTVSS VL: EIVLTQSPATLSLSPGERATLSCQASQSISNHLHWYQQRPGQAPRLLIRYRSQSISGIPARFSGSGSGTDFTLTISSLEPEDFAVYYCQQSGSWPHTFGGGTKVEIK
true

Exam item: decide whether the reported kon for LM609 grafted antibody variant D102 (Fab, V domains shown, Fab) VH: QVQLVESGGGVVQPGRSLRLSCAASGFTFSSYDMSWVRQAPGKGLEWVAKVSSGGGSTYYLDTVQGRFTISRDNSKNTLYLQMNSLRAEDTAVYYCARHNYGSFADWGQGTTVTVSS VL: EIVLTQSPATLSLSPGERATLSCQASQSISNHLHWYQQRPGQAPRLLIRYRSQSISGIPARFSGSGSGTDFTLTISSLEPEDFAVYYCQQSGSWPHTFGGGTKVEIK is at least 200000 M⁻¹ s⁻¹.
true

API: above_or_equal(metric=kon, cutoff=200000 M⁻¹ s⁻¹) for item LM609 grafted antibody variant K52 (Fab, V domains shown, Fab) VH: QVQLVESGGGVVQPGRSLRLSCAASGFTFSSYDMSWVRQAPGKGLEWVAKVKSGGGSTYYLDTVQGRFTISRDNSKNTLYLQMNSLRAEDTAVYYCARHNYGSFAYWGQGTTVTVSS VL: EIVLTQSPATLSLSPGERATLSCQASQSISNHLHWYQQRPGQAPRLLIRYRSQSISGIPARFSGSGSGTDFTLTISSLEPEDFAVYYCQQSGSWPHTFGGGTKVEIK
false
